Provenance of the data: ChEMBL document CHEMBL3785016

For each entry below, report its IC50 value.
# Tested on: MCF7
# Assay Details: Cytotoxicity against human ER-positive MCF7 cells assessed as cell viability after 72 hrs by MTT assay
# Format: functional, cell-based
# Measurement Conditions: Homo sapiens, MCF7, 72 h; read-out: IC50

Example entries begin here.
| Smiles | Target Or System | Measurement |
| --- | --- | --- |
| COc1ccc(/C(=C(/CCNC(=O)C(=O)NCc2ccccc2)c2ccccc2)c2ccccc2)cc1 | MCF7 | > 50 µM |
| CCOC(=O)C(=O)NCC/C(=C(\c1ccccc1)c1ccc(OC)cc1)c1ccccc1 | MCF7 | > 50 µM |
| COc1ccc(/C(=C(/CCNC(=O)C(=O)N2CCOCC2)c2ccccc2)c2ccccc2)cc1 | MCF7 | 43.4 µM |
| COc1ccc(/C(=C(/CCNC(=O)N2CCOCC2)c2ccccc2)c2ccccc2)cc1 | MCF7 | > 50 µM |
| COc1ccc(/C(=C(/CCCl)c2ccccc2)c2ccccc2)cc1 | MCF7 | > 50 µM |
| COc1ccc(/C(=C(/CCNC(=O)C(=O)N2CCCC2)c2ccccc2)c2ccccc2)cc1 | MCF7 | > 50 µM |

# return IC50 for each item in the list
1. COc1ccc(/C(=C(/CCNC(=O)NC2CCCCC2)c2ccccc2)c2ccccc2)cc1
2. CCN(CC)C(=O)NCC/C(=C(\c1ccccc1)c1ccc(OC)cc1)c1ccccc1
3. COc1ccc(/C(=C(/CCNC(=O)C(=O)N2CCCCC2)c2ccccc2)c2ccccc2)cc1
4. COc1ccc(/C(=C(/CCNC(=O)N2CCCC2)c2ccccc2)c2ccccc2)cc1
5. COc1ccc(/C(=C(/CCNC(=O)N2CCCCC2)c2ccccc2)c2ccccc2)cc1
6. COc1ccc(/C(=C(/CCNC(=O)NCc2ccccc2)c2ccccc2)c2ccccc2)cc1

Result:
1. 37.2 µM
2. > 50 µM
3. > 50 µM
4. > 50 µM
5. > 50 µM
6. > 50 µM

# return IC50 for each item in the list
1. OCCOc1ccc(/C(=C(/CCCl)c2ccccc2)c2ccccc2)cc1
2. COc1ccc(/C(=C(/CCNC(=O)C(=O)NC2CCCCC2)c2ccccc2)c2ccccc2)cc1

Result:
1: > 50 µM; 2: 12.1 µM

* * *

For each entry below, report its pIC50 value.
# Tested on: MDA-MB-231
# Assay Details: Cytotoxicity against human ER-negative MDA-MB-231 cells assessed as cell viability after 72 hrs by MTT assay
# Type: functional, cell-based
# Measurement Conditions: MDA-MB-231, 72 h
Give bare numbers, as −log10 of the molar value.

Example entries begin here.
| Smiles | Target Or System | Measurement |
| --- | --- | --- |
| COc1ccc(/C(=C(/CCNC(=O)N2CCOCC2)c2ccccc2)c2ccccc2)cc1 | MDA-MB-231 | 4.37 |
| COc1ccc(/C(=C(/CCNC(=O)C(=O)N2CCCC2)c2ccccc2)c2ccccc2)cc1 | MDA-MB-231 | 4.31 |
| CCN(CC)C(=O)NCC/C(=C(\c1ccccc1)c1ccc(OC)cc1)c1ccccc1 | MDA-MB-231 | 4.39 |
| COc1ccc(/C(=C(/CCNC(=O)C(=O)N2CCOCC2)c2ccccc2)c2ccccc2)cc1 | MDA-MB-231 | 4.70 |
| COc1ccc(/C(=C(/CCNC(=O)C(=O)NC2CCCCC2)c2ccccc2)c2ccccc2)cc1 | MDA-MB-231 | 4.91 |

Kindly review the next molecule as well.
Q: Quick one: pIC50 for COc1ccc(/C(=C(/CCNC(=O)C(=O)NCc2ccccc2)c2ccccc2)c2ccccc2)cc1 ?
Result: 4.94
